Measured IC50 by item
# System: nitric oxide production by stimulated J774.A1 macrophages
# Experiment: Nitric oxide production by LPS + IFN-γ stimulated J774.A1 macrophages (nitrite, Griess method)
# Type: cell-based, murine
# Assay context: Mus musculus, J774.A1, 24 h, read-out: IC50, half maximal inhibitory concentration, NO production, J774.A1 macrophages stimulated with LPS (500 ng/mL) + IFN-γ (5 ng/mL), 24 h, nitrite by Griess

Please review the following examples before continuing.
Molecule: COC1CC(OC2CCC3(C)C(=CCC4(O)C3CC(OC(=O)C=Cc3ccccc3)C3(C)C(O)(C(C)OC(=O)c5cccnc5)CCC43O)C2)OC(C)C1OC1CC(OC)C(OC2OC(C)C(O)C(OC)C2O)C(C)O1 (centres unmarked) [Compound 1]
IC50: 24.5 µM
--
Molecule: COC1CC(OC2CCC3(C)C(=CCC4(O)C3CC(OC(=O)C=Cc3ccccc3)C3(C)C(C(C)O)CCC43O)C2)OC(C)C1OC1CC(OC)C(OC2OC(C)C(O)C(OC)C2O)C(C)O1 (centres unmarked) [Compound 11]
IC50: 47.3 µM
--
Molecule: COC1CC(OC2CCC3(C)C(CCC4(O)C3CC(OC(=O)C=Cc3ccccc3)C3(C)C(O)(C(C)OC(=O)c5cccnc5)CCC43O)C2)OC(C)C1OC1CC(OC)C(OC2OC(C)C(O)C(OC)C2O)C(C)O1 (centres unmarked) [Compound 2]
IC50: 32.1 µM
--
Molecule: COC1CC(OC2C(C)OC(OC3CCC4(C)C(CCC5(O)C4CC(OC(=O)C=Cc4ccccc4)C4(C)C(C(C)O)CCC54O)C3)CC2OC(C)=O)OC(C)C1OC1OC(C)C(O)C(OC)C1O (centres unmarked) [Compound 13]
IC50: 42.4 µM
--
Molecule: COC1CC(OC2CCC3(C)C(CCC4(O)C3CC(OC(C)=O)C3(C)C(C(C)OC(=O)c5ccccc5)CCC43O)C2)OC(C)C1OC1CC(OC)C(OC2OC(C)C(O)C(OC)C2O)C(C)O1 (centres unmarked) [Compound 18]
IC50: 66.2 µM
--
Molecule: COC1CC(OC2CCC3(C)C(CCC4(O)C3CC(OC(C)=O)C3(C)C(C(C)O)CCC43O)C2)OC(C)C1OC1CC(OC)C(OC2OC(C)C(O)C(OC)C2O)C(C)O1 (centres unmarked) [Compound 16]
IC50: 40 to 70 µM
--
Molecule: COC1CC(OC2C(C)OC(OC3CCC4(C)C(CCC5(O)C4CC(OC(=O)C=Cc4ccccc4)C4(C)C(O)(C(C)OC(=O)c6cccnc6)CCC54O)C3)CC2OC(C)=O)OC(C)C1OC1OC(C)C(O)C(OC)C1O (centres unmarked) [Compound 3]
IC50: 29.1 µM

// moving on: another record for IC50
Query COC1CC(OC2C(C)OC(OC3CCC4(C)C(CCC5(O)C4CC(OC(=O)C=Cc4ccccc4)C4(C)C(C(C)O)CCC54O)C3)CC2OC(C)=O)OC(C)C1OC1OC(C)C(OC2OC(CO)C(OC3OC(CO)C(O)C(O)C3O)C(O)C2O)C(OC)C1O (centres unmarked) [Compound 7] on nitric oxide production by stimulated J774.A1 macrophages; IC50 returned: > 100 µM
